- targetEntity: UniProtKB Q6PCB7
- Sequence (Q6PCB7 whole entry): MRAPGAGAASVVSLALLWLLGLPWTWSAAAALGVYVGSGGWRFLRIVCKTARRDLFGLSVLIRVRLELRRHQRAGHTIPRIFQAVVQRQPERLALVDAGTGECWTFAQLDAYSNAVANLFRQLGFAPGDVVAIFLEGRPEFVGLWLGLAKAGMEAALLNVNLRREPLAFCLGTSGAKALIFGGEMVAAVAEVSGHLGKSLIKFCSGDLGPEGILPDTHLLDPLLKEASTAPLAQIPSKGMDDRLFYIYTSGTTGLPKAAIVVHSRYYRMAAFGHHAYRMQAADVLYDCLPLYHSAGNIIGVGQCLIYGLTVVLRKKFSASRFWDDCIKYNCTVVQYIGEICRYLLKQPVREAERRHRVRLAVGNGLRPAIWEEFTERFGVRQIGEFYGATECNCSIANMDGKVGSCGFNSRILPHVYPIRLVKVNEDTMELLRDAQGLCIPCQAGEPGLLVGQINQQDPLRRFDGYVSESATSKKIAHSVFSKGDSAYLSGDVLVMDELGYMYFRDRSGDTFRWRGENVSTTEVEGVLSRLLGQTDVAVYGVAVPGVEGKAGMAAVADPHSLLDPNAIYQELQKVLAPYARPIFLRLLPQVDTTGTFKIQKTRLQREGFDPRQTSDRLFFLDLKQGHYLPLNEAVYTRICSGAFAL
- assayComment: Inhibition of human recombinant FATP1 acyl-coA synthetase activity using [14C]oleic acid as substrate
metricName: IC50 (nM)

Examples with their reported IC50 follow.
CCCC(=O)c1ccc(NC(=O)CSc2nnc(CNc3ccccc3)n2CC)cc1 = 230
CCOC(=O)c1ccc2oc(CSc3nnc(CNc4ccccc4)n3CC)nc2c1 = 680
CCn1c(CNc2ccccc2)nnc1SCc1nc2cc(C(F)(F)F)ccc2o1 = 360

(A) CCC(=O)c1ccc2oc(CS(=O)(=O)c3nnc(CNc4ccccc4)n3CC)nc2c1
(B) CCOC(=O)c1ccc(NC(=O)CSc2nnc(CNc3ccccc3)n2CC)cc1
Qu. Problem: Given the entries A and B , determine which has the lower reported IC50. Use the label to indicate which entry you chose.
Ans. B
(B: 330 nM, A: 1670 nM)

---

- assayComment: Metabolic stability in rat blood assessed as compound remaining after 2 hrs
- Format: ADME, tissue-based
- conditionLabel: read-out: Stability
metricName: remaining at 2 h (%)

CCn1c(CNc2ccccc2)nnc1SCc1nc2cc(OC(F)(F)F)ccc2o1 = 100
CCn1c(CNc2ccccc2)nnc1SCc1nc2cc(Cl)ccc2o1 = 92
CCC(=O)c1ccc2oc(CS(=O)(=O)c3nnc(CNc4ccccc4)n3CC)nc2c1 = 44
CCn1c(CNc2ccccc2)nnc1SCc1nc2cc(C(=O)C(C)C)ccc2o1 = 42
CCC(O)c1ccc2oc(CSc3nnc(CNc4ccccc4)n3CC)nc2c1 (stereo unspecified) = 80
CCC(=O)c1ccc(NC(=O)CSc2nnc(CNc3ccccc3)n2CC)cc1 = 28

(a) CC/C(=N/O)c1ccc2oc(CSc3nnc(CNc4ccccc4)n3CC)nc2c1
(b) CCC(=O)c1ccc2nc(CSc3nnc(CNc4ccccc4)n3CC)oc2c1
(c) CCC(=O)c1ccc(N(C)C(=O)CSc2nnc(CNc3ccccc3)n2CC)cc1
(d) CCC(=O)c1ccc2oc(CSc3nnc(CNc4ccccc4)n3CC)nc2c1
(e) CCOC(=O)c1ccc2oc(CSc3nnc(CNc4ccccc4)n3CC)nc2c1
Qu. Ascending sort, remaining at 2 h. Submit the labels in the order that the ranking request calls for.
Ans. e, c, d, b, a

---

- assayComment: Volume of distribution in rat at 1 mg/kg, iv
- Type: ADME, organism-based
- Parameters: dose 1 mg/kg, route intravenous
- conditionLabel: in vivo
metricName: Vd (L/kg)

CCn1c(CNc2ccccc2)nnc1SCc1nc2cc(C(F)(F)F)ccc2o1 = 1.86

(A) CCn1c(CNc2ccccc2)nnc1SCc1nc2cc(OC(F)(F)F)ccc2o1
(B) CCC(=O)c1ccc2oc(CSc3nnc(CNc4ccccc4)n3CC)nc2c1
Qu. Sorting ascending by Vd, which comes first: A or B ? Select an item and report its label.
Ans. A

---

- targetEntity: UniProtKB Q6PCB7
- assayComment: Inhibition of human recombinant FATP1 acyl-coA synthetase activity using [14C]oleic acid as substrate
metricName: IC50 (µM)

(A) CCOC(=O)c1ccc(NC(=O)CSc2nnc(CSCc3ccccc3)n2CC)cc1
(B) CCC(=O)c1ccc(NC(=O)CSc2nnc(CNc3ccccc3)n2CC)cn1
(C) CCn1c(CNc2ccccc2)nnc1SCc1nc2cc(C(=O)C(C)C)ccc2o1
Qu. Sort these compounds on IC50 so the largest reading comes first. Provide the ranking by listing each label in its place in the requested order.
Ans. A, C, B
(A: 7.6 µM, C: 0.6 µM, B: 0.4 µM)
